measurement.label: melting point

Sample records with melting point:
COc1ccccc1-c1ccc2c(c1)S(=O)(=O)NC(C1CCCCC1)N2 (stereo not drawn) ... 219 to 222 °C
CCC(=O)N(CC)c1cccc(-c2ccc(Cl)nn2)c1 ... 118 to 119 °C
Cn1c(CC(=O)NC2CN3CCC2CC3)cc2ccccc21 (stereo not drawn) ... 185 to 187 °C

Now examine the next entry.
Note down melting point recorded for CC(=O)OC1(Cc2ccccn2)C(=O)N(N2CCOCC2)c2ccccc21 (stereo not drawn)
107 to 110 °C

###

Entries and their melting point

Sample records with melting point:
Cc1ccccc1Cc1ccc(C(=O)O)o1 ... 136 to 138 °C
CCCOc1ccc(-c2csc(-c3ccccc3Cl)c2CC(=O)N=C(N)N)cc1 ... 111 to 113 °C
Cc1ccccc1-c1c(C(=O)O)c(=O)n(C)c2cc3c(cc12)CCC3 ... 231 to 232 °C
CC(C)OC(=O)NS(=O)(=O)Cl ... 66 °C
O=C1C2CC(O)CCN2C(=O)N1c1ncc(Cl)cc1F (stereo not drawn) ... 183 to 185 °C

Note down melting point recorded for Cc1ccc(C(NCC(=O)Nc2c(C(C)C)cccc2C(C)C)c2ccccc2)cc1 (stereo not drawn)
165 to 166 °C

Note down melting point recorded for CC(=O)NCc1nc(-c2ccccc2)c(-c2ccccc2)o1
58 to 60 °C

Note down melting point recorded for CC(=O)C(=CS(=O)(=O)NC(C)C)c1cccc([N+](=O)[O-])c1
153 to 157 °C

Note down melting point recorded for CC(=O)Nc1ncc2ncn([C@@H]3C[C@H](OC(C)=O)[C@@H](O)[C@H]3O)c2n1 (racemic)
222 to 223 °C

Note down melting point recorded for CS(=O)(=O)C1CCCCC1Br (stereo not drawn)
45 to 48 °C

Note down melting point recorded for CS(=O)(=O)Oc1ccc2c(c1)C1(CCCC1)CO2
75 to 77 °C

Note down melting point recorded for CC(=O)N1CCC2(CC1)Cn1cc([N+](=O)[O-])nc1O2
232 to 234 °C

Note down melting point recorded for CCOC(=O)C(Cc1ccc(C(F)(F)F)cc1)C(=O)c1ccc(F)cc1F (stereo not drawn)
34 to 35 °C

Note down melting point recorded for CCCCc1ncc(C=O)n1Cc1ccc(C(=O)O)c2ccccc12
182 °C

Note down melting point recorded for O=C1Cc2cc3cc(OCCCC(=O)N4CCN(CC5CCCCC5)CC4)ccc3nc2N1
212 °C

Note down melting point recorded for Cn1c2ccccc2c(=O)c2cscc21
188 to 190 °C

Note down melting point recorded for O=C(Nc1cccc2[nH]ccc12)c1ccccc1OCCCCBr
135 °C

Note down melting point recorded for Cc1ccccc1C(=O)Nn1cc(-c2ccccc2)nc1S
159 to 160 °C

Note down melting point recorded for CCCn1cc2c(C3C(=O)Nc4ccc(Cl)cc43)ncnc2n1 (stereo not drawn)
302 to 306 °C

Note down melting point recorded for COC(=O)C=Cc1ccc(Br)nc1
150 °C

Note down melting point recorded for COc1ccc2c(c1)C(=O)c1c-2c(O)nc2ccccc12
294 to 296 °C

Note down melting point recorded for CN(C)CCOc1ccc(Nc2nccc(-c3c[nH]nc3-c3ccc(OCc4ccccc4)cc3)n2)cc1
87 to 91 °C

Note down melting point recorded for CC(C)=CCON1C(=O)c2ccccc2C1=O
97 to 98 °C

Note down melting point recorded for Cn1nc(-c2c(F)cccc2Cl)nc1-c1sc(Cl)c(Cl)c1Cl
129 to 130 °C

Note down melting point recorded for CCCc1nn(-c2ccc(C(F)(F)F)cn2)cc1CO
120 to 121 °C

Note down melting point recorded for N#Cc1ccc(NC(=O)Nc2cccc(C#N)c2)cc1
183 to 185 °C

Note down melting point recorded for CC(C)(C(N)=O)c1cccc(Cn2ccnc2)c1
79 to 82 °C

Note down melting point recorded for CCCCOCCOc1ccc(-c2ccc(N3CCC(C)CC3)c(C=C(C)C(=O)O)c2)cc1
154 to 155 °C

Note down melting point recorded for COc1ccc(C(NCCC2CCCCC2)c2cccc(Nc3c(N)c(=O)c3=O)c2)cc1 (stereo not drawn)
168 to 171 °C

Reference source for all entries: a melting point compilation (Tetko et al.; mined from patent text by program, amines drawn as free bases though some values may be those of a salt)
